Each entry below lists one item and its recorded koff value.
Target: human FLT3 (hFLT3) (human) (UniProt P36888)
Sequence (P36888 27-543 limits assumed): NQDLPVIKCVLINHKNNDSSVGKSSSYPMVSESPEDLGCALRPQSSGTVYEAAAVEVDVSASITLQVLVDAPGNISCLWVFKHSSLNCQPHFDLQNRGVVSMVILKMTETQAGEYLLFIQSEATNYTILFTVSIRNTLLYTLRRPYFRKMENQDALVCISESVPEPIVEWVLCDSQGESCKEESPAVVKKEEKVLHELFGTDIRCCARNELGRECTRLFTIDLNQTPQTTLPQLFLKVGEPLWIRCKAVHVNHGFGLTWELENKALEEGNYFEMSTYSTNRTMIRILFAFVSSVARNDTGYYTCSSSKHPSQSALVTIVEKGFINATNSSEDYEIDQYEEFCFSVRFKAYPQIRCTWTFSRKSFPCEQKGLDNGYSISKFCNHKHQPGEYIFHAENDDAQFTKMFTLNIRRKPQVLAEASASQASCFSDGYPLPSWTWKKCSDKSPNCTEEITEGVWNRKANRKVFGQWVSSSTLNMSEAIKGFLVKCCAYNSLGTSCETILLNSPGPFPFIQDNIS
Assay: SPR, Table 6, scFv format; set-up and antigen species not described
readout-name: koff (s⁻¹)

[[record]]
binder = "P1A5 (scFv format) (scFv, part only; not given: linker, domain order, tags, V domains shown, not shown: another chain or arm of the molecule; small tags and cut ends) VH: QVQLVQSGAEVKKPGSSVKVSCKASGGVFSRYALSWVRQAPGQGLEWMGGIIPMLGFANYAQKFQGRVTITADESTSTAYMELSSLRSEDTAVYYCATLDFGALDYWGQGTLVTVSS VL: EIVLTQSPGTLSLSPGERATLSCRASQAVDSSDLAWYQQKPGQAPRLLIYDAYTRPSGIPDRFSGSGSGTDFTLTISRLEPEDFAVYYCQQYGSSPLTFGGGTKLEIK"
readout_name = "koff"
measured_result = 0.000292

[[record]]
binder = "P7H3 (scFv format) (scFv, part only; not given: linker, domain order, tags, V domains shown, not shown: another chain or arm of the molecule; small tags and cut ends) VH: EVQLLESGGGLVQPGGSLRLSCAASGFTFSSYAMHWVRQAPGKGLEWVSAISGSGGSTYYADSVKGRFTISRDNSKNTLYLQMNSLRAEDTAVYYCARGTRWWWGDAFDHWGQGTLVTVSS VL: QSVLTQPPSVSVAPGKTARITCGGNNIGSKSVHWYQQKPGQAPVLVIYYDSDRPSGIPERFSGSNSGNTATLTISRVEAGDEADYYCQVWDSSTAWVFGGGTKLTVL"
readout_name = "koff"
measured_result = 0.00187

[[record]]
binder = "P5A3 (scFv format) (scFv, part only; not given: linker, domain order, tags, V domains shown, not shown: another chain or arm of the molecule; small tags and cut ends) VH: QVQLVQSGAEVKKPGSSVKVSCKASGGTFSSYYIGWVRQAPGQGLEWMGGIIPWFGTANYAQKFQGRVTITADKSTNTAYMELSSLRSEDTAVYYCAADHHDSPSGYTSGGFDVWGQGTLVTVSS VL: QSALTQPASVSGSPGQSITISCTGTSSDVGGYNYVSWYQQHPGKAPKLMIYEVSKRPSGVPDRFSGSKSGNTASLTVSGLQAEDEADYYCSSYAGSNTVVFGGGTKLTVL"
readout_name = "koff"
measured_result = 0.0175

